Documented pIC50 across a set of molecules
Assay: Inhibition Assay: The TACE inhibition test was carried out by measuring TACE activity in the presence and the absence of the test substance using the thus-obtained TACE as an enzyme, and a fluorescent synthetic substrate Nma(N-methylanthranilic acid)-Leu-Ala-Gln-Ala-Val-Arg-Ser-Ser-Lys(Dnp(dinitrophenyl))-D-Arg-NH2 (SEQ ID NO: 1) including the TACE-cleaved sequence of a membrane-bound TNF as a substrate. The TACE inhibition test method is shown below. Namely, 90 μL of an enzyme solution prepared with an assay buffer A (50 mM tris-hydrochloric acid buffer (pH 7.5) including 200 mM sodium chloride, 5 mM calcium chloride, 10 μM zinc sulfate, and 2 mg/mL bovine serum albumin) and 90 μL of a fluorescent synthetic substrate prepared with an assay buffer B (50 mM tris-hydrochloric acid buffer (pH 7.5) including 200 mM sodium chloride, 5 mM calcium chloride, 10 μM zinc sulfate, and 0.05% PLURONIC F-68) were mixed together, and reacted at 37° C. for 1.5 hours. Enzyme activity was then determined by measuring with a fluorescence intensity meter (Labsystems, Fluoroskan Ascent) at an excitation wavelength of 355 nm and a measurement wavelength of 460 nm.
pIC50: −log10 of the molar value.
Metric Name: pIC50

- Molecule: "Cc1cccn(CC2(c3ccc(Oc4ccc(Cl)cc4)cc3)NC(=O)NC2=O)c1=O (configuration not stated)"
  Val: "> 7.00"
- Molecule: "Cc1cccn(CC2(c3ccc(F)c(F)c3)NC(=O)NC2=O)c1=O (configuration not stated)"
  Val: "> 7.00"
